System: anti-HAV-positive sera
Experiment: EIA for anti-HAV: synthetic peptides adsorbed to wells, reacted with anti-HAV-positive acute sera
Assay type: binding, human
Conditions: experiment 1; OD493 positive/negative ratio of reactive sera
METRIC NAME: P/N for acute sera (mean)

The following sequences have reported results that may help.
PQLKPVSELTFLKRSFNLVE [YK-1431] :: 14.13
VDDPRSEEDKRFESHIECRK [YK-1314] :: 14.68
DVVLMKVPTIPKFRDITQHF [YK-1382] :: 8.4
SDSVGQQIKVIPVDPYFFQM [YK-1243] :: 3.47
VAKLVTQEMFQNIDKKIESQ [YK-1393] :: 10.15

Name the recorded P/N for acute sera (mean) for GLDHILSLADIEEEQMIQSV [YK-1206] . 9.46
